Biological target: Muscarinic acetylcholine receptor M4 (Homo sapiens)
Sequence (P08173 whole entry): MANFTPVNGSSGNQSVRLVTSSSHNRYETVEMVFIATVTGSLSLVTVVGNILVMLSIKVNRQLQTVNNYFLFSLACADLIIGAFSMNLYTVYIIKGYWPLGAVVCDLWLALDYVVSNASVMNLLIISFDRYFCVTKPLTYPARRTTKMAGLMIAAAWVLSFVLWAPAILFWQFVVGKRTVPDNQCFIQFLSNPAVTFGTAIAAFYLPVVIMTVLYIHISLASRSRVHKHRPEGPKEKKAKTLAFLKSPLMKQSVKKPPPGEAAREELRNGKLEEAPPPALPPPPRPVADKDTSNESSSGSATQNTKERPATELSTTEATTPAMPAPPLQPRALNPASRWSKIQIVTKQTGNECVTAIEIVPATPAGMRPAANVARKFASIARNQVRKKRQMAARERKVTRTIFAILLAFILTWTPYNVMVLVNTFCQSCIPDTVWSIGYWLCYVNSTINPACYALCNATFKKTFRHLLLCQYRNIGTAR
Type: cell membranes, CHO
Readout name: pKi
To interpret pKi, take it as minus log10 of a concentration measured in moles per litre.

Some molecules with known pKi results, for comparison:
# Molecule, Experimental result
records = [
    ("C[C@@H]1O[C@H](C[N+](C)(C)C)C[C@H]1O", 5.85),
    ("O=C(OC1CC2CCCC1N2)C1CCCCC1 (stereo not drawn)", 6.08),
]

Now for another entry.
Exercise: Any idea what its pKi is? The molecule is CN1C2CCCC1C(OC(=O)OCC(Cl)(Cl)Cl)C2 (stereo not drawn)
Key: 7.38

====

Biological target: Muscarinic acetylcholine receptor M4 (Homo sapiens, UniProt P08173)
Sequence (P08173 whole entry): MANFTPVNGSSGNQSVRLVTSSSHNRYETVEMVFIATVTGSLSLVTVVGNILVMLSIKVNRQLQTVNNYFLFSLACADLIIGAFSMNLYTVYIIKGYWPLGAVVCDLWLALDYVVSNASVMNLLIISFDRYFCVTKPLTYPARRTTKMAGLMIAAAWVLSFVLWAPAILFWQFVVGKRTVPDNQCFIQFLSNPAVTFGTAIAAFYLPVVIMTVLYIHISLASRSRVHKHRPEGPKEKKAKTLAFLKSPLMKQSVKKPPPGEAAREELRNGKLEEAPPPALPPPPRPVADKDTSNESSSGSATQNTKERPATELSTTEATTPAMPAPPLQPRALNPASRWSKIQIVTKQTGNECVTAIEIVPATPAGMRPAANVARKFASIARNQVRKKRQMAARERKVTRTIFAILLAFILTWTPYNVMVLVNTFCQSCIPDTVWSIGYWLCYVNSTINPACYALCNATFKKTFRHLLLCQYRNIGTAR
Assay type: cell membranes, CHO
Binary label based on Ki with cut-off 400 nM: below gives label 1, not below gives label 0.

# Compound, System, Category label
rows = [
    ("CCC(=O)OC1CC2CCCC1N2 (configuration not stated)", "Muscarinic acetylcholine receptor M4 (Homo sapiens, UniProt P08173)", "label 0"),
    ("O=C(OC1CC2CCCC1N2)c1ccc([N+](=O)[O-])cc1 (configuration not stated)", "Muscarinic acetylcholine receptor M4 (Homo sapiens, UniProt P08173)", "label 1"),
    ("CCC(=O)OC1CC2CCCC1N2C (configuration not stated)", "Muscarinic acetylcholine receptor M4 (Homo sapiens, UniProt P08173)", "label 0"),
]

Exercise: hey, is Ki for O=C(OC1CC2CCCC1N2)c1ccccc1 (configuration not stated) lower than 400 nM or not?
Key: label 1

Exercise: Proceed to O=C1CCCN1CC#CCN1CCCC1 [OXOTREMORINE]
Key: label 1

Exercise: Field entry: CN1C2CCCC1C(OC(=O)C1CCCCC1)C2 (configuration not stated)
Key: label 1

====

Target: Muscarinic acetylcholine receptor M2 (Homo sapiens, UniProt P08172)
Sequence (P08172 whole entry): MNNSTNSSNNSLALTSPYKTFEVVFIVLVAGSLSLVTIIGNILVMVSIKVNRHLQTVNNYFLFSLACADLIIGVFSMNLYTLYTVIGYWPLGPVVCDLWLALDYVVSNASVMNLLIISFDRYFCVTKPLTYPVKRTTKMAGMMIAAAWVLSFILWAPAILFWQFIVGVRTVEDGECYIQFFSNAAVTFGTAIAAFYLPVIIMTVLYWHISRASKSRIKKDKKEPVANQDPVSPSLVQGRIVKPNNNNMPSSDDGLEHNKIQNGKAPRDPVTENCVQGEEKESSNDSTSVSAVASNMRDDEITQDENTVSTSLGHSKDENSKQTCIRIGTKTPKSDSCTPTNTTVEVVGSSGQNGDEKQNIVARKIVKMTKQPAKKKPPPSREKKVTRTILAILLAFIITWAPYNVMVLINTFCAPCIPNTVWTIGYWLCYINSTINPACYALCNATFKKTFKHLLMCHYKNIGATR
Test: Inhibition of [3H]- oxotremorine-M binding to human Muscarinic acetylcholine receptor M2 expressed in CHO cell membranes
pKi: −log10 of the molar value.
Would you please tag the item 1 when its pKi is 6 or above, and 0 when it is below?

# Compound, Category label
measured = [
    ("O=C1CCCN1CC#CCN1CCCC1", 1),
    ("O=C(OC1CC2CCCC1N2)C1CCCCC1 (stereo unspecified)", 0),
    ("CN1C2CCCC1C(OC(=O)C1CCCCC1)C2 (stereo unspecified)", 0),
    ("CC(=O)OC1CC2CCCC1N2 (stereo unspecified)", 1),
    ("CCC(=O)OC1CC2CCCC1N2 (stereo unspecified)", 1),
    ("CC(=O)OC1CC2CCCC1N2C (stereo unspecified)", 0),
    ("O=C(OC1CC2CCCC1N2)c1ccccc1 (stereo unspecified)", 0),
]

Okay, now this compound:
Exercise: Determine whether measured pKi meets or exceeds 6 for O=C(OC1CC2CCCC1N2)c1ccc([N+](=O)[O-])cc1 (stereo unspecified)
Key: 1

====

Target: Muscarinic acetylcholine receptor M2 (Homo sapiens, UniProt P08172)
Sequence (P08172 whole entry): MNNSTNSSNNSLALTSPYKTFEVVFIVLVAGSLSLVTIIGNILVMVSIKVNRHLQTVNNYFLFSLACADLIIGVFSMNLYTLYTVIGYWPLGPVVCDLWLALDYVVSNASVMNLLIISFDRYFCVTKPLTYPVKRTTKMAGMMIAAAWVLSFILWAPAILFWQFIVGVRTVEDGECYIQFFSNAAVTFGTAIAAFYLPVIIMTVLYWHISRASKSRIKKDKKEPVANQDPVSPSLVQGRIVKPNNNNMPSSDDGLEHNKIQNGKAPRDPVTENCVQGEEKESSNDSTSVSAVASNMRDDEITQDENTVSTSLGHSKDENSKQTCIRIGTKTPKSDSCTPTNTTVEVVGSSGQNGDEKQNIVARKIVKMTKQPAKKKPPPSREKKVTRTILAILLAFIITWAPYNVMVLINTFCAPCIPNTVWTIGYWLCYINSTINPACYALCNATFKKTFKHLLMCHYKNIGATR
Type: cell membranes, CHO
Sorting guide: entries reporting Ki beneath 700 nM go in the 1 (yes) pile, the rest go in the 0 (no) pile.

Worked set:
# Molecule, Category label
records = [
    ("CCC(=O)OC1CC2CCCC1N2C (centres undefined)", "0 (no)"),
    ("O=C1CCCN1CC#CCN1CCCC1 [OXOTREMORINE]", "1 (yes)"),
    ("CN1C2CCCC1C(OC(=O)c1ccccc1)C2 (centres undefined)", "1 (yes)"),
    ("CCC(=O)OC1CC2CCCC1N2 (centres undefined)", "0 (no)"),
    ("O=C(OC1CC2CCCC1N2)C1CCCCC1 (centres undefined)", "0 (no)"),
]

Exercise: Find out if reported Ki for O=C(OC1CC2CCCC1N2)c1ccc([N+](=O)[O-])cc1 (centres undefined) is less than 700 nM
Key: 1 (yes)

Exercise: What do you get for CN1C2CCCC1C(OC(=O)C1CCCCC1)C2 (centres undefined) ?
Key: 0 (no)

Exercise: Would you kindly repeat that for O=C(OC1CC2CCCC1N2)c1ccccc1 (centres undefined) ?
Key: 1 (yes)

Exercise: Record: CN1C2CCCC1C(OC(=O)OCC(Cl)(Cl)Cl)C2 (centres undefined)
Key: 0 (no)

====

Biological target: Muscarinic acetylcholine receptor
Assay type: cell membranes, Rattus norvegicus, Membrane
Documented Ki across a set of compounds
Value expressed in µM; do not type the unit.

# Compound, Readout name, Experimental result
data = [
    ("CCCC(=O)OC1CC2CCCC1N2C (stereo not drawn)", "Ki", 34),
    ("CN1C2CCCC1C(OC(=O)C1CCCCC1)C2 (stereo not drawn)", "Ki", 8.5),
    ("CCC(=O)OC1CC2CCCC1N2 (stereo not drawn)", "Ki", 32),
    ("CC(=O)OC1CC2CCCC1N2C (stereo not drawn)", "Ki", 280),
    ("CN1C2CCCC1C(OC(=O)OCC(Cl)(Cl)Cl)C2 (stereo not drawn)", "Ki", 23),
    ("CCCC(=O)OC1CC2CCCC1N2 (stereo not drawn)", "Ki", 30),
    ("COc1ccccc1C(=O)OC1CC2CCCC1N2C (stereo not drawn)", "Ki", 31),
]

We now examine a further compound.
Exercise: Quick one: Ki for COc1ccccc1C(=O)OC1CC2CCCC1N2 (stereo not drawn) ?
Key: 53
